system: KIT (Homo sapiens)
Construct: recombinant cytoplasmic portion of KIT, wild type (ProQinase #0997-0000-1)
Sequence (P10721 544-976 limits assumed): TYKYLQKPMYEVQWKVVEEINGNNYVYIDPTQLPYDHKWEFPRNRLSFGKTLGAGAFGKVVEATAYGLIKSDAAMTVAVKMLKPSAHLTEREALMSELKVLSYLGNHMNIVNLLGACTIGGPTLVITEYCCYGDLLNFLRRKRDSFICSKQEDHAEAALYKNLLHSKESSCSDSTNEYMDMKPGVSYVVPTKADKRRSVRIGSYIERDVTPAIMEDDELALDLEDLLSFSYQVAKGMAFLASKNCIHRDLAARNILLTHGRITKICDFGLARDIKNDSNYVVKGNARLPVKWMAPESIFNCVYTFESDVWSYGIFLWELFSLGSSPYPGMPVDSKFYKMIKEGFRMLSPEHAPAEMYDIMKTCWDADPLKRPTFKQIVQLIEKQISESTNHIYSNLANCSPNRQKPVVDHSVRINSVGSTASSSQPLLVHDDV
assay.notes: MicroScale Thermophoresis (MST)
recorded.endpoint: pKd
Note on pKd: it is the negative log10 of concentration, concentration in mol/L.

Cn1cc(-c2ccc3c(c2)CCN3C(=O)Cc2cccc(C(F)(F)F)c2)c2c(N)ncnc21	6.18

Suppose we examine the compound "CC(C)(C)c1nc(-c2ccc(NC(=O)Nc3cccc(C(F)(F)F)c3)c3ccccc23)c2c(N)nccn12" ; what pKd value has been reported?
4.97
